tested on: DeltatarO mutant; assay: S. aureus survival, RN4220 and DeltatarO strains – OD600, teichoic acid synthesis inhibitors, primary screen (AID 463173); conditions: S. aureus RN4220 wild type/DeltatarO growth, OD600, 18 h, hits give low values, screened at 18.75 µg/mL (by protocol)
The whole screen tested about 52,000 compounds, of which about 4,300 (8.3%) were called active. Only a selection was taken, and actives are over-represented in it overall.
What survival was measured for each of the following?
Express it in %; write the number only.

Reported survival for CC(=O)c1c(C)n(-c2cccc(C)c2)c2ccc(OC(=O)COc3ccccc3)cc12 was 70

Reported survival for Cc1ccc(Nc2c(-c3ccc(N(C)C)cc3)nc3ccccn23)cc1 was 131

Reported survival for O=C(NCc1ccc2c(c1)CCN2C(=O)c1ccc(Cl)cc1)c1cccc(F)c1 was 61

Reported survival for C=CCNC(=O)CN1CCC(n2c(C)nc3cc(C(F)(F)F)ccc32)CC1 was 95

Reported survival for Cc1ccccc1Nc1c(-c2ccc(Cl)s2)nc2c(C)cccn12 was 69
